Cited source for all entries: PubChem BioAssay (NCI)

- Test system: HOP-92 NSCLC
- measurement-description: NCI tumour cell line growth inhibition, 48 h
Consider the following compounds; for each one, report its TGI.

Query string: Any idea what its TGI is? The compound is COC(=O)C1CC(=O)O[C@H]1c1ccc(OC)c(OC)c1 (stereo not given in full)
Result string: > 100 µM

Query string: Any idea what its TGI is? The compound is "C[C@H]1CCC/C=C/[C@@H]2C[C@H](OC(=O)CN(C)C)C[C@H]2[C@H](O)/C=C/C(=O)O1"
Result string: > 56.1 µM

Query string: Any idea what its TGI is? The compound is O=C1C[C@@H]2OCC=C3C[N+]4([O-])CC[C@]56c7ccccc7N1[C@H]5[C@H]2[C@H]3C[C@@H]64 (stereo not given in full)
Result string: > 100 µM

Query string: Any idea what its TGI is? The compound is CCOC(=O)C1(C)CCC(C(=O)OC)C1=O (stereo not given)
Result string: > 100 µM

Query string: Any idea what its TGI is? The compound is "Cc1ccc2c(=O)cc(-c3cc(C)sc3C)[nH]c2n1"
Result string: > 100 µM

Query string: Any idea what its TGI is? The compound is "C(=NC12CC3CC(CC(C3)C1)C2)C1CCCCC1"
Result string: > 100 µM

Query string: Any idea what its TGI is? The compound is "CNS(=O)(=O)NNS(=O)(=O)c1ccc(C)cc1"
Result string: > 100 µM

Query string: Any idea what its TGI is? The compound is "COc1ccc(OC)c(/C=C2/C(=O)N=C(NC(C)=O)N2C)c1"
Result string: > 100 µM

Query string: Any idea what its TGI is? The compound is "C/C(=C\c1csc(C)n1)[C@@H]1C[C@@H]2O[C@]2(C)CCC[C@H](C)[C@H](O)[C@@H](C)C(=O)C(C)(C)[C@@H](O)CC(=O)N1"
Result string: < 1e-05 µM

Query string: Any idea what its TGI is? The compound is Cc1ccc2c(c1C)CC1(Cc3ccc(C)c(C)c3C1=O)C2=O (stereo not given)
Result string: 87 µM

Query string: Any idea what its TGI is? The compound is CCC12C=C(C(=O)OC)N3c4ccccc4C4CCN(CCC1)C2C43 (stereo not given)
Result string: > 100 µM

Query string: Any idea what its TGI is? The compound is "Nc1ccccc1C(=O)/C=C/c1ccccc1O"
Result string: 81.6 µM

Query string: Any idea what its TGI is? The compound is "CCCCCCCCCCCCCCCCOP(=O)([O-])OCC[N+](C)(C)C1CC(C)(C)N(O)C(C)(C)C1"
Result string: > 100 µM

Query string: Any idea what its TGI is? The compound is "S=c1[nH]nc(Cn2c3ccc(Br)cc3c3nc4ccccc4nc32)o1"
Result string: 47 µM

Query string: Any idea what its TGI is? The compound is "N/C(CCSCCSCC/C(N)=N\O)=N\O"
Result string: > 100 µM

###

- Tested on: LOX IMVI melanoma
- measurement-description: NCI tumour cell line growth inhibition, 48 h
Consider the following compounds; for each one, report its TGI.

Query string: Any idea what its TGI is? The compound is "Nc1cc(C(F)(F)F)c(-c2nc(N3CCOCC3)nc(N3CCOCC3)n2)cn1"
Result string: > 35.1 µM

Query string: Any idea what its TGI is? The compound is "COc1cc2c(cc1OCCCOc1cc3c(cc1OC)C(=O)N1CCC[C@H]1C(=O)N3)N=C[C@@H]1CCCN1C2=O"
Result string: 18.7 µM

Query string: Any idea what its TGI is? The compound is "CN(C)c1ccc(/C=c2/sc3nc(=O)c(-c4ccccc4NC(=O)C(F)(F)F)nn3c2=O)cc1"
Result string: > 100 µM

Query string: Any idea what its TGI is? The compound is "CCOC(=O)c1cn(-c2ccc([N+](=O)[O-])cc2)c(=S)n2c1nc1ccccc12"
Result string: > 100 µM

###

- Test system: NCI/ADR-RES ovarian
- measurement-description: NCI tumour cell line growth inhibition, 48 h
Consider the following molecules; for each one, report its TGI.

Query string: Form: Entry = "Cn1cc(-c2ccc3c(c2)ncn3-c2cc(NS(=O)(=O)C3CC3)cc(-c3ccc(F)cc3F)c2)cn1" | System = NCI/ADR-RES ovarian | TGI = ____
Result string: > 100 µM

Query string: Form: Entry = "CO/C(N)=C(\C#N)N=Cc1ccsc1" | System = NCI/ADR-RES ovarian | TGI = ____
Result string: > 100 µM

Query string: Form: Entry = "CCN(CC)/[N+]([O-])=N/OS(=O)(=O)N(C)C" | System = NCI/ADR-RES ovarian | TGI = ____
Result string: > 100 µM

###

Consider the following molecules; for each one, report its TGI.
- Test system: EKVX NSCLC
- measurement-description: NCI tumour cell line growth inhibition, 48 h

Query string: Any idea what its TGI is? The molecule is C/C=C1/C=CC2c3[nH]c4ccccc4c3CCN2C1 (configuration not stated)
Result string: > 400 µM

Query string: Any idea what its TGI is? The molecule is COC(=O)C1=C(OC)C(=P2(c3ccccc3)CC(c3ccccc3)=C2c2ccccc2)C(C(=O)OC)=C1C(=O)OC (configuration not stated)
Result string: > 100 µM

Query string: Any idea what its TGI is? The molecule is "CC(C)(C)OC(=O)/N=C/c1c(O)c2ccccc2oc1=O"
Result string: > 100 µM

Query string: Any idea what its TGI is? The molecule is "OC[C@H]1C[C@](O)(c2ccc(F)cc2)[C@@H](c2ccc(F)cc2)O1"
Result string: > 100 µM

Query string: Any idea what its TGI is? The molecule is "N/C(=N\N=C\c1nc2ccccc2o1)c1cnccn1"
Result string: > 100 µM

Query string: Any idea what its TGI is? The molecule is "Oc1c(Br)cc(Cl)cc1C(c1cc(Cl)cc(Br)c1O)C(Cl)(Cl)Cl"
Result string: 11.3 µM

Query string: Any idea what its TGI is? The molecule is O=C(CC1(O)C(=O)Nc2c(Cl)ccc(Cl)c21)c1ccc(Cl)cc1 (configuration not stated)
Result string: > 100 µM

Query string: Any idea what its TGI is? The molecule is "N/C(CCSCCSCC/C(N)=N\O)=N\O"
Result string: > 100 µM

Query string: Any idea what its TGI is? The molecule is "O=C1c2ccccc2-c2c1c1c(O)cccc1n2Cc1ccccc1"
Result string: 69.2 µM

Query string: Any idea what its TGI is? The molecule is "N#CC1(CCCCl)CCCCC1"
Result string: > 100 µM

Query string: Any idea what its TGI is? The molecule is "COC(=O)c1ccc(CCC2=CC(=O)C=CC2=O)cc1"
Result string: 38.7 µM

Query string: Any idea what its TGI is? The molecule is "CC(=O)n1c2ccc(Br)cc2c2nc3ccccc3nc21"
Result string: > 100 µM

###

Consider the following molecules; for each one, report its TGI.
- System: NCI-H23 lung
- measurement-description: NCI tumour cell line growth inhibition, 48 h

Query string: Any idea what its TGI is? The molecule is "COC(=O)N/N=C(\C)c1sc(-c2nc(C)c(/C(C)=N/NC(=O)OC)s2)nc1C"
Result string: > 100 µM

Query string: Any idea what its TGI is? The molecule is "COc1ccc(/C=C2\C[C@H]3[C@@H]4CC=C5C[C@@H](O)CC[C@]5(C)[C@H]4CC[C@]3(C)\C2=N\O)cc1"
Result string: > 100 µM

Query string: Any idea what its TGI is? The molecule is "O=C1/C(=C/c2ccc(Br)s2)NC(=S)N1CN1CCCCC1"
Result string: > 100 µM

Query string: Any idea what its TGI is? The molecule is O=S(=O)(O)C(c1ccccc1)C(O)c1ccccc1 (stereo not given)
Result string: > 100 µM

Query string: Any idea what its TGI is? The molecule is "CCCCCCCCCCN=C(N)c1ccc(N2CCN(c3ccc(C(N)=NCCCCCCCCCC)cc3)CC2)cc1"
Result string: > 50 µM
